Every entry's value here was drawn from patent US11672775B2.

Biological target: EP2 receptor (Homo sapiens, UniProt P43116)
Construct: expressed in transfected cells
Sequence (P43116 whole entry): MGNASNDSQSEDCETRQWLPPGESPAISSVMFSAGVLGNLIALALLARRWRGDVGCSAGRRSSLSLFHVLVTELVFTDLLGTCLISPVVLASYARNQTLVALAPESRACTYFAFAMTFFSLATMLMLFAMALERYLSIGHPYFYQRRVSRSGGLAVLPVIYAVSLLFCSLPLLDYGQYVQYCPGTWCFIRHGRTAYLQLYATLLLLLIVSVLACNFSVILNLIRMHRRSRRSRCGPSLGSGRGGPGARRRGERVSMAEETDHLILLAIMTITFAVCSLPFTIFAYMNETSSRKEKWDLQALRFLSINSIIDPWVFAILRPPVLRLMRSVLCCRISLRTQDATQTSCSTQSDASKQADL
Test: cAMP assay (TR-FRET or HTRF kit, forskolin), Examples 5 and 6
Type: cell-based
Details: Table 3 (Example 5); read-out: EC50, EP receptor
quantity-measured: pEC50
Scale: pEC50 equals -log10([C]), with [C] in mol/L.

molecule: CCCCC[C@H](O)CC[C@@H]1[C@H]2Cc3cccc(OCC(=O)OCC(=O)O)c3C[C@H]2C[C@H]1O [Prodrug XV]
experimental-value: 7.38

Now for another entry.
Give its pEC50 value. Item: CCCCC[C@H](O)CC[C@@H]1[C@H]2Cc3cccc(OCC(=O)O)c3C[C@H]2C[C@H]1O
9.27
